- ASSAYED_SYSTEM: recombinant human Bcl-2 D103Y protein (Homo sapiens (Human), UniProt P10415, D103Y)
- PROCEDURE_SUMMARY: Bcl-2-D103Y Biochemical Assay (TR-FRET)
- CONDITION_CONTEXT: TR-FRET, FITC labeled Bak peptide
// pIC50 lookup, one value per entry
Scale: negative log10 of molar concentration, which is what pIC50 denotes.

# annotated cases, reported pIC50 shown
>>> value_observed("CC(C)c1ccccc1C1CN(CC2CCCCC2)CCN1C1CC2(CCN(c3ccc(C(=O)NS(=O)(=O)c4ccc(NC[C@H]5CC[C@](C)(O)CC5)c([N+](=O)[O-])c4)c(Oc4cnc5[nH]ccc5c4)c3)CC2)C1 (stereo partly shown) [Example 16]")
9.20
>>> value_observed("COc1ccc(CN2CCN(C3CC4(C3)CN(c3ccc(C(=O)NS(=O)(=O)c5ccc(NCC67CC8CC(C6)CC(OC)(C8)C7)c([N+](=O)[O-])c5)c(Oc5cnc6[nH]cc(F)c6c5)c3)C4)[C@H](c3ccccc3C(C)C)C2)cc1 [Example 357]")
9.00
>>> value_observed("CC(C)c1ccccc1[C@@H]1CN(Cc2ccc(F)c(F)c2)CCN1C1CC2(C1)CN(c1ccc(C(=O)NS(=O)(=O)c3ccc(NC[C@H]4CC[C@](C)(O)CC4)c([N+](=O)[O-])c3)c(Oc3cnc4[nH]cc(F)c4c3)c1)C2 [Example 229]")
9.35

--- query ---
Query: Enter pIC50 (test system recombinant human Bcl-2 D103Y protein (Homo sapiens (Human), UniProt P10415, D103Y)) for COc1ccc(CN2CCN(C3CC4(C3)CN(c3ccc(C(=O)NS(=O)(=O)c5ccc(NC[C@H]6CC[C@](C)(O)CC6)c([N+](=O)[O-])c5)c(Oc5cnc6[nH]ccc6c5)c3)C4)[C@H](c3ccccc3C(C)C)C2)cc1 [Example 147]
Result: 10.07

###

- ASSAYED_SYSTEM: recombinant human Bcl-2-G101V protein (Homo sapiens (Human), UniProt P10415, G101V)
- PROCEDURE_SUMMARY: Bcl-2-G101V TR-FRET Assay
- Assay type: binding
- CONDITION_CONTEXT: Bcl-2 G101V mutant, TR-FRET; read-out: Biochemical assay (IC50, nM) Bcl-2 G101V
- Experimental: Biological Example: Bcl-2-G101V TR-FRET Assay […]. The TR-FRET signals (ex337 nm, em490 nm/520 nm) were read on BMG PHERAstar FSX instrument. The inhibition percentage of Bcl-2-G101V interaction with its ligand in presence of increasing concentrations of compounds was calculated based on the ratio of fluorescence at 490 nm to that at 520 nm. The IC50 for each compound was derived from fitting the data to the four-parameter logistic equation by Graphpad Prism software or Dotmatics.
// IC50 lookup, one value per entry
Only the number, expressed in nM, is required.

# annotated cases, reported IC50 shown
>>> value_observed("COc1cc(CN2CCN(C3CC4(C3)CN(c3ccc(C(=O)NS(=O)(=O)c5ccc(NC[C@H]6CC[C@](C)(O)CC6)c([N+](=O)[O-])c5)c(Oc5cnc6[nH]ccc6c5)c3)C4)[C@H](c3ccccc3C(C)C)C2)cc2c1OCCC2 [Example 318]")
0.16
>>> value_observed("[2H]C([2H])([2H])Oc1ccc(CN2CCN(C3CC4(C3)CN(c3ccc(C(=O)NS(=O)(=O)c5ccc(NC[C@H]6CC[C@](C)(O)CC6)c([N+](=O)[O-])c5)c(Oc5cnc6[nH]ccc6c5)c3)C4)[C@H](c3ccccc3C(C)C)C2)cc1OC([2H])([2H])[2H] [Example 243]")
0.086
>>> value_observed("COc1ccc(CN2CCN(C3CC4(CCN(c5ccc(C(=O)NS(=O)(=O)c6ccc(NC[C@H]7CC[C@](C)(O)CC7)c([N+](=O)[O-])c6)c(Oc6cnc7[nH]ccc7c6)c5)CC4)C3)[C@H](c3ccccc3C(C)C)C2)cc1OC [Example 81a]")
0.075
>>> value_observed("COc1cc(CN2CCN(C3CC4(C3)CN(c3ccc(C(=O)NS(=O)(=O)c5ccc(NC[C@H]6CC[C@](C)(O)CC6)c([N+](=O)[O-])c5)c(Oc5cnc6[nH]cc(F)c6c5)c3)C4)[C@H](c3ccccc3C(C)C)C2)ccc1Cl [Example 325]")
0.97

Query: Enter IC50 (test system recombinant human Bcl-2-G101V protein (Homo sapiens (Human), UniProt P10415, G101V)) for COc1cccc(CN2CCN(C3CC4(CCN(c5ccc(C(=O)NS(=O)(=O)c6cc7c(c([N+](=O)[O-])c6)N[C@H](C[C@H]6CC[C@H](O)CC6)CO7)c(Oc6cnc7[nH]ccc7c6)c5)CC4)C3)C(c3ccccc3C(C)C)C2)c1 (some centres unmarked) [Example 45]
Result: 0.95

Query: Enter IC50 (test system recombinant human Bcl-2-G101V protein (Homo sapiens (Human), UniProt P10415, G101V)) for COc1ccc(CN2CCN(C3CC4(C3)CN(c3ccc(C(=O)NS(=O)(=O)c5ccc(NCC6CCOCC6)c([N+](=O)[O-])c5)c(Oc5cnc6[nH]cc(F)c6c5)c3)C4)[C@H](c3ccccc3C(C)C)C2)cc1 [Example 183]
Result: 0.18

Query: Enter IC50 (test system recombinant human Bcl-2-G101V protein (Homo sapiens (Human), UniProt P10415, G101V)) for COc1cc(CN2CCN(C3CC4(C3)CN(c3ccc(C(=O)NS(=O)(=O)c5ccc(NC[C@H]6CC[C@](C)(O)CC6)c([N+](=O)[O-])c5)c(Oc5cnc6[nH]ccc6c5)c3)C4)[C@H](c3ccccc3C(C)C)C2)cnc1OC [Example 242]
Result: 0.077

Query: Enter IC50 (test system recombinant human Bcl-2-G101V protein (Homo sapiens (Human), UniProt P10415, G101V)) for COc1cc(CN2CCN(C3CC4(C3)CN(c3ccc(C(=O)NS(=O)(=O)c5ccc(NC[C@H]6CC[C@](C)(O)CC6)c([N+](=O)[O-])c5)c(Oc5cnc6[nH]cc(F)c6c5)c3)C4)[C@H](c3ccccc3C(C)C)C2)ccc1C1CCC1 [Example 341]
Result: 4.5
